experimental system: p45 v-abl tyrosine kinase
experiment description: p45 v-abl Kinase Assay ((Val^5)-angiotensin II phosphorylation)
test conditions: purified abl-kinase 40 ng; peptide 2 mM, ATP 50 μM; pH 8.0, 30° C.
readout type: IC50 (µM)
Answer format: numeric, µM implied, no suffix.

Recorded IC50, per entry:
> print(dat)
                                   compound        experimental.system  observed.measurement
1  NC(CCC(=O)O)C(=O)Nc1ccc2c(c1)C(=Cc1cc(O)c3c(c1O)CCCC3)C(=O)N2 (stereo not shown)  p45 v-abl tyrosine kinase                    10
2  CC(N)C(=O)Nc1ccc2c(c1)C(=Cc1cc(O)c3c(c1O)CCCC3)C(=O)N2 (stereo not shown)  p45 v-abl tyrosine kinase                    10

Query block: Please tell me: IC50 of CC(NC(=O)OC(C)(C)C)C(=O)Nc1ccc2c(c1)C(=Cc1cc(O)c3c(c1O)CCCC3)C(=O)N2 (stereo not shown) , system p45 v-abl tyrosine kinase?
Result block: 1.56

Query block: Note, next up: CC(N)C(=O)NC(C)C(=O)Nc1ccc2c(c1)C(=Cc1cc(O)c3c(c1O)CCCC3)C(=O)N2 (stereo not shown)
Result block: 3.12
